The reported numbers originate from paper PMC10288926.

Test system: HCC-78 cell line harbouring SLC34A2-ROS1 fusion
Experiment: Antiproliferative MTT assay, HCC-78
Format: cell-based, human
Details: Homo sapiens, HCC78, 72 h, read-out: Cellular IC50 (μM) HCC-78
measurement.type: IC50 (µM)

Recorded IC50, per entry:
molecular.string	IC50, µM
C[C@@H](Oc1cc(-c2cccn2C)cnc1N)c1ccccc1-c1ccccc1	7.1
C[C@@H](Oc1cc(-c2ccnn2C)cnc1N)c1ccccc1	28.7
C[C@@H](Oc1cc(-c2cnn(C)c2)cnc1N)c1ccccc1-c1ccnn1C	52.7
CCCn1cc(-c2cnc(N)c(O[C@H](C)c3ccccc3F)c2)cn1	13.9
CCCn1cc(-c2cnc(N)c(O[C@H](C)c3ccccc3-c3ccccc3)c2)cn1	7.7
C[C@@H](Oc1cc(-c2cnn(C)c2)cnc1N)c1ccccc1F	16

(1) CCn1cc(-c2cnc(N)c(O[C@H](C)c3ccccc3-c3ccnn3C)c2)cn1
(2) C[C@@H](Oc1cc(-c2cccn2C)cnc1N)c1ccccc1F
input: Response body: label of entry with the larger IC50; valid values 1 , 2 . Use the label to indicate which entry you chose.
output: 2
